# Tested on: NCI-H2122 cells
# measurementProtocol: NCI-H2122 CTG proliferation assay (120 h) (NSCLC, G12C)
# Format: cell-based
# particulars: Homo sapiens
quantityMeasured: IC50 (nM)

C[C@H](Oc1cc(N2CCNC3(CCC3)C2)nc(-c2noc3c2CCC[C@@]32CCCc3sc(N)c(C#N)c32)n1)[C@@H]1CCCN1C | 1420

[a] C[C@H](Oc1cc(-c2ccn(C)n2)nc(-c2noc3c2CCC[C@@]32CCCc3sc(N)c(C#N)c32)n1)[C@@H]1CCCN1C
[b] C[C@H](Oc1cc(-n2nccc2-c2ccncc2)nc(-c2noc3c2CCC[C@@]32CCCc3sc(N)c(C#N)c32)n1)[C@@H]1CCCN1C
Query :: Field: lower recorded IC50 (choose a or b ) Lab log: write the label of the selected item as the result.
Result :: a

###

Recorded solubility at 24 h, one value per entry.
# measurementProtocol: Solubility measurement (DMSO solution method), McIlvaine buffer pH 4.5 or 6.8
# Format: physicochemical
# particulars: aqueous buffer, kinetic from dmso stock; McIlvaine buffer pH 6.8; DMSO stock diluted to 250 μM; 24 h shaking at ambient temperature; read-out: solubility pH 6.8

Before answering, review these 4 worked examples.
C[C@H](Oc1cc(-c2cnn(C)n2)nc(-c2noc3c2CCC[C@@]32CCCc3sc(N)c(C#N)c32)n1)[C@@H]1C[C@@H](F)CN1C | < 1 µg/mL
C[C@H](Oc1cc(N2CCNC3(CCC3)C2)nc(-c2onc3c2CCC[C@@]32CCCc3sc(N)c(C#N)c32)n1)[C@@H]1CCCN1C | > 176 µg/mL
C[C@H](Oc1cc(-n2cc(-c3cncs3)nn2)nc(-c2noc3c2CCC[C@@]32CCCc3sc(N)c(C#N)c32)n1)[C@@H]1CCCN1C | < 1 µg/mL
C[C@H](Oc1cc(N2CCC[C@@H](O)C2)nc(-c2noc3c2CCC[C@@]32CCCc3sc(N)c(C#N)c32)n1)[C@@H]1CCCN1C | > 123 µg/mL

Query :: Which solubility at 24 h value is on record for C[C@H](Oc1cc(N2CCNC3(CCC3)C2)nc(-c2noc3c2CCC[C@@]32CCCc3sc(N)c(C#N)c32)n1)[C@@H]1CCCN1C ?
Result :: > 133 µg/mL

Query :: Which solubility at 24 h value is on record for C[C@H](Oc1cc(N2CCN(C)C3(CC3)C2)nc(-c2noc3c2CCC[C@@]32CCCc3sc(N)c(C#N)c32)n1)[C@@H]1C[C@@H](F)CN1C ?
Result :: < 1 µg/mL

Query :: Which solubility at 24 h value is on record for C[C@H](Oc1cc(-n2cnc3cccnc32)nc(-c2noc3c2CCC[C@@]32CCCc3sc(N)c(C#N)c32)n1)[C@@H]1CCCN1C ?
Result :: < 1 µg/mL

Query :: Which solubility at 24 h value is on record for C[C@H](Oc1cc(-n2ccc(-c3cn([C@H]4CCOC4)nn3)n2)nc(-c2noc3c2CCC[C@@]32CCCc3sc(N)c(C#N)c32)n1)[C@@H]1CCCN1C ?
Result :: < 1 µg/mL

Query :: Which solubility at 24 h value is on record for C[C@H](Oc1cc(N2CCNC3(CC3)C2)nc(-c2noc3c2CCC[C@@]32CCCc3sc(N)c(C#N)c32)n1)[C@@H]1CCCN1C ?
Result :: > 122 µg/mL
